test system: L1210 leukemia ip in BDF1 mice, survival T/C; test: NCI In Vivo Anticancer Drug Screen. Data for tumor model L1210 Leukemia (intraperitoneal) in B6D2F1 (BDF1) mice; conditions: endpoint: mean survival time; dose: 400.0 mg/kg/injection; schedule: Q04DX002 (ip); vehicle: saline with Tween-80; higher = longer survival
Toxic doses and inconclusive results are not listed.
Measurement kind: T/C

smiles_notation=CCCCN1CSC(=S)N(CCCC)C1 observed_value="105 % of control"
smiles_notation=O=C(Nc1cccc(S(=O)(=O)F)c1)Oc1ccc([N+](=O)[O-])cc1 observed_value="90 % of control"
smiles_notation=CCCCS(=O)(=O)N1CCCC1 observed_value="101 % of control"
smiles_notation=Cc1ccc(CNC(=O)Cc2ccccc2)cc1C observed_value="110 % of control"
smiles_notation=N#Cc1c(/N=C/c2ccccc2Cl)sc2c1CCC2 observed_value="91 % of control"

----------
Tested on: L1210 leukemia ip in BDF1 mice, survival T/C
Experiment: NCI In Vivo Anticancer Drug Screen. Data for tumor model L1210 Leukemia (intraperitoneal) in B6D2F1 (BDF1) mice
Settings: endpoint: mean survival time; dose: 200.0 mg/kg/injection; schedule: Q01DX001 (ip); vehicle: saline; higher = longer survival
Method: The antitumor activity of compounds was measured in mice bearing transplantable tumors. Survival or tumor size were measured and the results are expressed as the measurement made in the treated group (T) divided by the measurement made in the vehicle treated control group (C). The tumor model used in this assay is L1210 Leukemia (intraperitoneal) in B6D2F1 (BDF1) mice
Inconclusive results and toxic doses are left out.
This section presents molecules with their documented T/C values.
Measurement kind: T/C

molecule="ClCCC(c1ccccc1)N1CCCCC1 (stereo unspecified)" observed_value="93 % of control"
molecule=CC(=O)CC(=O)Nc1cc(C(F)(F)F)ccc1Cl observed_value="101 % of control"
molecule="CC1=CC(O)Nc2c(CBr)cccc21 (stereo unspecified)" observed_value="95 % of control"
molecule=CC/C=C(CC)/C(=C/CC)CC observed_value="105 % of control"
molecule="O=C(O)C1C2CC3C(OC(=O)C31)C2Br (stereo unspecified)" observed_value="94 % of control"
molecule=CSc1n[nH]c(=O)[nH]c1=O observed_value="102 % of control"
molecule=CC(C)(CBr)C(=O)O observed_value="95 % of control"
molecule=CC(=O)c1ccc(C)c2ccccc12 observed_value="102 % of control"
molecule=Cn1c2ccccc2c(=O)c2ccccc21 observed_value="101 % of control"
molecule=C=C(C)[C@@H]1CC[C@@H](C)C[C@H]1O observed_value="100 % of control"
molecule="CCOC(=O)c1ccccc1NC(OCC)C(=O)c1ccccc1 (stereo unspecified) (tested in a mixture with another compound)" observed_value="97 % of control"
molecule="CC1([N+](=O)[O-])COP(=O)(NC2CCCC2)OC1 (stereo unspecified)" observed_value="102 % of control"
molecule=COc1ccccc1C(=O)P(=O)(OC)OC observed_value="93 % of control"
molecule=CCCCC/C(=N/N)c1ccc2cc3c(cc2c1)CCCC3 observed_value="95 % of control"
molecule=C#CC(O)(c1ccccc1)c1ccccc1 observed_value="107 % of control"
molecule=COC(=O)CN1C(c2ccccc2)=CS(=O)(=O)C=C1c1ccccc1 observed_value="97 % of control"
